Value source: a melting point compilation (Tetko et al.; mined from patent text by program, amines drawn as free bases though some values may be those of a salt)

READOUT: melting point

Here are 5 compounds together with their reported answers.
COMPOUND | OBSERVED_MEASUREMENT
COc1cccc(-c2ccc3c(c2)C(C)(C)OC(=S)N3)c1 | 142 to 143 °C
CN=C(NC#N)Oc1ccccc1 | 132 to 133 °C
CCOC(=O)C(NC(=O)C(C)C)C(=O)Cc1ccc(Cl)cc1Cl (configuration not stated) | 139 to 140 °C
N=C(N)Nc1nc(CCCCNC(N)=N[N+](=O)[O-])cs1 | 180 to 181 °C
COC(=O)CCCC(=O)Nc1cccc(Br)n1 | 128 to 131 °C

Exam item: For the compound shown here, CC(C)NC(=O)C1OC1c1ccccc1 (configuration not stated) , give the reported melting point.
Marked response: 114 to 115 °C

Exam item: For the compound shown here, "COCCc1nc2c(N)nc3ccccc3c2n1CCOCCNC(=O)N1CCOCC1" , give the reported melting point.
Marked response: 164 to 166 °C

Exam item: For the compound shown here, "CN1CCC(C(=NNc2ccc(F)cc2)c2ccccc2F)CC1" , give the reported melting point.
Marked response: 125 to 126 °C

Exam item: For the compound shown here, "C=C(F)C(=O)Oc1c(I)cc(C(F)(F)F)cc1I" , give the reported melting point.
Marked response: 93 to 95 °C

Exam item: For the compound shown here, NS(=O)(=O)c1cc2c(s1)SC(CC(=O)O)C(=O)N2 (configuration not stated) , give the reported melting point.
Marked response: 240 °C

Exam item: For the compound shown here, CN1CCC(c2c(O)cc(O)c3c(=O)cc(Oc4ccccc4)oc23)C(O)C1 (configuration not stated) , give the reported melting point.
Marked response: 112 °C

Exam item: For the compound shown here, CCCC1CCC(c2cc3c4c(c(F)c(F)c3o2)OCCC4)CC1 (configuration not stated) , give the reported melting point.
Marked response: 89 °C

Exam item: For the compound shown here, "CCN(CC)CCCCNc1ncc2c(n1)N(C1CCCC1)C(=O)N(c1c(F)c(OC)cc(OC)c1F)C2" , give the reported melting point.
Marked response: 132 to 133 °C

Exam item: For the compound shown here, "COc1cc(COc2nn(-c3ccccc3)cc2C=O)ccc1OCc1nc(-c2ccco2)oc1C" , give the reported melting point.
Marked response: 137 to 138 °C

Exam item: For the compound shown here, "CC(C)(C)OC(=O)Nc1sc(-c2cccnc2)nc1C(F)(F)F" , give the reported melting point.
Marked response: 145 to 147 °C

Exam item: For the compound shown here, "CCOC(=O)CNC(=O)COc1ccc(C=O)cc1" , give the reported melting point.
Marked response: 94.5 to 95.5 °C

Exam item: For the compound shown here, "CCCCCCCCC(=O)N(C)Cc1ccc(C(=O)O)cc1" , give the reported melting point.
Marked response: 79.5 to 81 °C

* * *

READOUT: melting point

Exam item: For the molecule shown here, "CC(C)(O)c1cc(C(C)(C)O)cc(C(C)(C)O)c1" , give the reported melting point.
Marked response: 148 to 150 °C

Exam item: For the molecule shown here, "CC(C)(C)c1cc(CCc2ccccc2NC(=O)N2CCN(Cc3ccccc3)CC2)cc(C(C)(C)C)c1O" , give the reported melting point.
Marked response: 70 to 72 °C

Exam item: For the molecule shown here, "CCOC(=O)c1c(O)c2cc(Br)ccc2c(=O)n1CC1CC1" , give the reported melting point.
Marked response: 64 to 65 °C

* * *

READOUT: melting point

MOLECULE | melting point
CCCc1ccc(-n2nc(Cl)cc2-c2ccc(S(C)(=O)=O)cc2)cc1[N+](=O)[O-] | 42 to 46 °C
Cc1ccc(S(=O)(=O)N2[C@@H](C(=O)O)CC[C@H]2c2ccc(F)cc2)cc1 (racemic) | 166 °C
CC(C)CC(C#N)NC(=O)C(CC(C)C)NC(=O)c1ccc(Cn2ccnc2)cc1 (stereo unspecified) | 100 to 103 °C

Exam item: For the molecule shown here, "CNC(=O)Cc1ccccc1O" , give the reported melting point.
Marked response: 105 to 106 °C

Exam item: For the molecule shown here, O=C(CN1C(=O)C2(COc3ccc(Br)cc32)c2ccccc21)Nc1ccccc1F (stereo unspecified) , give the reported melting point.
Marked response: 100 to 103 °C

Exam item: For the molecule shown here, CCOC(=O)C1(Cl)Oc2c(cc(C(=O)c3ccccc3F)c(OC)c2C)C1Cl (stereo unspecified) , give the reported melting point.
Marked response: 102 °C

* * *

Catalogue of molecules with associated melting point

Here are 3 molecules together with their reported answers.
MOLECULE | melting point
CSc1ccc(CCl)cc1C(F)(F)F | 65 to 66 °C
CN1CCN(Cc2cc(N)cc(C(F)(F)F)c2)CC1 | 98 to 99 °C
O=S(CC1CO1)c1ncc(Cl)cn1 (stereo not drawn) | 92 °C

Exam item: For the molecule shown here, "CCOC(=O)CCCCCCOc1ccc(OCc2ccccc2)cc1" , give the reported melting point.
Marked response: 57 to 61 °C

Exam item: For the molecule shown here, "CC(C)C[C@H](O)C(=O)N[C@@H](C)C(=O)N[C@@H]1C(=O)NCCS[C@@H]1c1ccccc1" , give the reported melting point.
Marked response: 93 to 99 °C

* * *

READOUT: melting point

Here are 3 compounds together with their reported answers.
COMPOUND | OBSERVED_MEASUREMENT
O=C(CCl)Nc1nc(Cl)c(-c2ccccc2)s1 | 215 to 216 °C
O=C(O)c1cn(C2CC2)c2cc(N3CCNC(c4ccco4)C3)c(F)cc2c1=O (configuration not stated) | 176 °C
CC(Sc1cc(C(C)(C)C)c(O)c(C(C)(C)C)c1)C(=O)O (configuration not stated) | 110 to 113 °C

Exam item: For the compound shown here, "COc1ccc(C2(c3ccc(OC)c(OC)c3)CCC(=O)O2)cc1OC" , give the reported melting point.
Marked response: 133 to 134 °C

Exam item: For the compound shown here, COC(=O)C(Cc1ccccc1)Oc1ccc(-c2ccc(-c3c(Cc4ccccc4)oc4ccccc34)cc2)cc1 (configuration not stated) , give the reported melting point.
Marked response: 67 to 69 °C

Exam item: For the compound shown here, "COc1ccc2c3c(c(=O)oc2c1OC)CN(CC(C)=O)CC3" , give the reported melting point.
Marked response: 145 to 147 °C

Exam item: For the compound shown here, "O=C(Cn1nnnc1S)NO" , give the reported melting point.
Marked response: 105 to 107 °C

* * *

READOUT: melting point

COMPOUND | melting point
Cn1c(C(F)(F)F)cc(=O)n(-c2cc(F)c([N+](=O)[O-])cc2F)c1=O | 150 °C
CC(C)(C)OC(=O)NC1Cc2cccc(c2)CC(C(=O)O)NC(=O)CNC1=O (configuration not stated) | > 250 °C

Exam item: For the compound shown here, "CCOC(=O)/C=C/c1cn(Cc2ccc(OCc3nc(-c4ccco4)oc3C)cc2)nc1OCc1ccc(OCc2nc(-c3ccco3)oc2C)cc1" , give the reported melting point.
Marked response: 138 to 139 °C

Exam item: For the compound shown here, O=C1SC(Cc2ccc(OCCON=Cc3ccc(-c4ccccc4)cc3)cc2)C(=O)N1C(c1ccccc1)(c1ccccc1)c1ccccc1 (configuration not stated) , give the reported melting point.
Marked response: 157 to 159 °C

Exam item: For the compound shown here, "O=C(Nc1ccccc1)OCc1ccccc1" , give the reported melting point.
Marked response: 92 to 96 °C

Exam item: For the compound shown here, "CN(C)c1cccc2c1c(=O)n(C)c1c(-c3noc(C4CC4)n3)ncn21" , give the reported melting point.
Marked response: 170 to 171 °C

Exam item: For the compound shown here, COC1=C(C(=O)c2ccc(C)cc2)C(c2ccc(C(C)C)cc2)N(c2ccc(C)nn2)C1=O (configuration not stated) , give the reported melting point.
Marked response: 248 to 249 °C

Exam item: For the compound shown here, CCC(OC(=O)C1CC1)c1ccc(Cl)c2nc3n(c12)CCCN3c1ccc(OC)cc1Cl (configuration not stated) , give the reported melting point.
Marked response: 130 to 132 °C

Exam item: For the compound shown here, "Cn1cnc(COc2nn3c(-c4ccccc4)nnc3c(Cl)c2N2CCCC2)n1" , give the reported melting point.
Marked response: 198 to 199 °C

Exam item: For the compound shown here, "COc1ccc(S(=O)(=O)NC(=O)c2ccc(C(=O)NCCO)nc2)cc1" , give the reported melting point.
Marked response: 221 to 223 °C

Exam item: For the compound shown here, "COC(=O)CSc1cc(C)ccc1[N+](=O)[O-]" , give the reported melting point.
Marked response: 74 to 75 °C

Exam item: For the compound shown here, "CCCCc1nccc2c([N+](=O)[O-])cccc12" , give the reported melting point.
Marked response: 69 to 69.5 °C

Exam item: For the compound shown here, "CCCOc1ccc(CO)cc1N" , give the reported melting point.
Marked response: 94 to 95 °C

Exam item: For the compound shown here, "CC(C)CN(Cc1nnc(-c2ncn3c2CN(C)C(=O)c2c(Cl)cccc2-3)o1)CC(C)C" , give the reported melting point.
Marked response: 161 to 163 °C

Exam item: For the compound shown here, CCOC(=O)C(CCCCCc1ccc(Cl)cc1)C(N)=O (configuration not stated) , give the reported melting point.
Marked response: 110 to 111 °C

Exam item: For the compound shown here, "COc1ccc2c(c1)c(CC(=O)O)c(C)n2C(=O)c1cccc(Cl)c1" , give the reported melting point.
Marked response: 90 to 92 °C

Exam item: For the compound shown here, "O=C(c1ccc(C(F)(F)F)cc1Sc1ccccc1)c1cnoc1C1CC1" , give the reported melting point.
Marked response: 115 °C

Exam item: For the compound shown here, "CCOCc1nc2c(N)nc3cc(OCc4ccccc4Cl)ccc3c2n1CC(C)(C)NS(C)(=O)=O" , give the reported melting point.
Marked response: 253 to 255 °C

Exam item: For the compound shown here, "CCOCc1nc2c(N)nc(C)c(C)c2n1NC1CCCCC1" , give the reported melting point.
Marked response: 108 to 110 °C

Exam item: For the compound shown here, COc1ccccc1N1CCN(CC(C(=O)O)c2ccccc2)CC1 (configuration not stated) , give the reported melting point.
Marked response: 160 to 163 °C

Exam item: For the compound shown here, C#Cc1ccc2c(c1)CC1SC(c3ccccc3)=NC21O (configuration not stated) , give the reported melting point.
Marked response: 118 °C

Exam item: For the compound shown here, "CNC(=S)NN1Cc2c(C)ccc(C)c2C1" , give the reported melting point.
Marked response: 177 to 178 °C

Exam item: For the compound shown here, "CCn1c(N)c(C(=O)NC)c(=O)c2ccc(-c3ccc(NS(C)(=O)=O)cc3)nc21" , give the reported melting point.
Marked response: > 300 °C

Exam item: For the compound shown here, "COc1ccc(C(=O)N[C@@H]2CCc3cccc(N4CCN(C)CC4)c3C2)cc1" , give the reported melting point.
Marked response: 186 to 187 °C

Exam item: For the compound shown here, CCn1cc(C(=O)O)c(=O)c2cc(F)c(N3CCNC(COC)C3)cc21 (configuration not stated) , give the reported melting point.
Marked response: 169 to 170 °C

Exam item: For the compound shown here, "COC(=O)CCCSc1c(Cc2cccc3ccccc23)sc2c1c(=O)n(C)c(=O)n2CC(C)C" , give the reported melting point.
Marked response: 111 to 112 °C

Exam item: For the compound shown here, "COc1cc(-c2cnc3[nH]cc(I)c3n2)cc(OC)c1OC" , give the reported melting point.
Marked response: 230 to 232 °C
